Target: T1, ATF2 bZIP (human, UniProt P15336 352-410)
T1 sequence: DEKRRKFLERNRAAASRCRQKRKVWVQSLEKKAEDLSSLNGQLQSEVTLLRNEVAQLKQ
Experiment: competition (FP); antagonist: non-selected library member control peptide; FP: chloride salt (buffer and salt concentration truncated in material), 5 mM MgCl2, 10 mM TCEP, pH 7.4; 10 nM FAM-DNA; 1 h incubation, temperature not in material
Details: chain copies: 2; label: 5' 6-FAM; blunt; self-complementary, 2 copies
RECORDED ENDPOINT: pIC50
Give bare numbers, as −log10 of the molar value.

Query :: Looking for the measured pIC50 of FAM-CRE (dsDNA) DNA 1: GCGCTGACGTCAGCGC DNA 2: GCGCTGACGTCAGCGC , can you help?
Result :: 5.43
